The origin of these recorded values is paper PMC8879095.

- ASSAY DETAILS: Antibiotic concentrations in porcine oral fluid after intramuscular application (UHPLC-MS/MS)
- Format: in vivo
- RUN PARAMETERS: male, (Landrace × Yorkshire) × Duroc crossbred (DanBred sows), pig, intramuscular; oral fluid, pigs, i.m., time 2 d, treatment period; read-out: Avarage Concentrations in oral fluid
- Description: All animals were born in the sow farm (8000 DanBred sows) located in Northern Poland, after crossing ♀(♂Landrace × ♀Yorskshire) × ♂Duroc. Piglets were weaned after 4 weeks of lactation with an average weight of 6 kg and then moved to the weaner stable (23,000 weaners). […] Before the analysis, the oral fluid samples were centrifuged at 9447× rcf. […] For the extraction of analysed antibiotics, 600 µL of 0.5% formic acid was added, vortexed for 30 s and centrifuged for 10 min at 9447× rcf. […]
PROPERTY: concentration at 2 d (ng/mL)

// worked examples, concentration at 2 d included
COMPOUND	concentration at 2 d, ng/mL
CCC[C@@H]1C[C@@H](C(=O)N[C@@H]([C@H]2O[C@H](SC)[C@H](O)[C@@H](O)[C@H]2O)[C@@H](C)O)N(C)C1 [LIN, lincomycin]	2960
C=C[C@]1(C)C[C@@H](OC(=O)CSCCN(CC)CC)[C@]2(C)[C@H](C)CC[C@]3(CCC(=O)[C@H]32)[C@@H](C)[C@@H]1O [TIAM, tiamulin]	2520
COc1ncnc(NS(=O)(=O)c2ccc(N)cc2)c1OC [SDX, sulfadoxine]	5860

P. COc1cc(Cc2cnc(N)nc2N)cc(OC)c1OC [TRMP, trimethoprim]
Q. CC1(C)S[C@@H]2[C@H](NC(=O)Cc3ccccc3)C(=O)N2[C@H]1C(=O)O [PEN G, penicillin G]
Problem: Larger number for concentration at 2 d: P , or Q ? Reply briefly: the label of your chosen item.
Solution: P

---

- ASSAY DETAILS: Antibiotic concentrations in porcine oral fluid after intramuscular application (UHPLC-MS/MS)
- Assay type: in vivo
- RUN PARAMETERS: male, (Landrace × Yorkshire) × Duroc crossbred (DanBred sows), pig, intramuscular; oral fluid, pigs, i.m., time 12 d, posttreatment; read-out: Avarage Concentrations in oral fluid
PROPERTY: concentration at 12 d (ng/mL)

a. CCC[C@@H]1C[C@@H](C(=O)N[C@@H]([C@H]2O[C@H](SC)[C@H](O)[C@@H](O)[C@H]2O)[C@@H](C)O)N(C)C1
b. COc1cc(Cc2cnc(N)nc2N)cc(OC)c1OC
c. COc1ncnc(NS(=O)(=O)c2ccc(N)cc2)c1OC
Problem: Re-order the entries listed above so their concentration at 12 d values fall from first to last. Reply: labels, ordered per the request.
Solution: a, c, b

---

- ASSAY DETAILS: Antibiotic concentrations in porcine oral fluid after intramuscular application (UHPLC-MS/MS)
- Type: in vivo
- RUN PARAMETERS: male, (Landrace × Yorkshire) × Duroc crossbred (DanBred sows), pig, intramuscular, 5 mg/kg; oral fluid, pigs, i.m., time 1 d (24 h after first injection), treatment period; read-out: Avarage Concentrations in oral fluid
PROPERTY: concentration at 1 d (ng/mL)
Your answer should be a plain number; it is taken to be in ng/mL.

Problem: Given `CC[C@H]1OC(=O)C[C@@H](O)[C@H](C)[C@@H](O[C@@H]2O[C@H](C)[C@@H](O[C@H]3C[C@@](C)(O)[C@@H](O)[C@H](C)O3)[C@H](N(C)C)[C@H]2O)[C@@H](CC=O)C[C@@H](C)C(=O)/C=C/C(C)=C/[C@@H]1CO[C@@H]1O[C@H](C)[C@@H](O)[C@@H](OC)[C@H]1OC` , state its recorded concentration at 1 d.
Solution: 396
